Assignment: determine reported percentage damage caused to the plant, SEFTA for the given molecules.
system: Setaria faberi (SETFA); assay: Pre-emergence test, herbicidal damage; type: in vivo; parameters: key: 5=81-100%; 4=61-80%; 3=41-60%; 2=21-40%; 1=1-20%; 0=no damage to the plant; -=not tested; conditions: 1000 g/ha unless otherwise stated, evaluated after 13 days, five-point scale
Answer with the value's number alone.

Requested read-out: percentage damage caused to the plant, SEFTA. Entry: Cc1c(Br)c(-c2ccc(Cl)c(Cl)c2)c(C(=O)O)c(=O)n1C [Compound 5]
0

Give its percentage damage caused to the plant, SEFTA value. Item: Cc1cc(-c2ccc(Cl)c(Cl)c2)c(C(=O)O)c(=O)n1-c1cccc(C(F)(F)F)c1F [Compound 17]
0

Which percentage damage caused to the plant, SEFTA is listed for Cc1cc(-c2ccc(Cl)c(Cl)c2)c(C(=O)O)c(=O)n1-c1ccc(Cl)cc1F [Compound 13] ?
0

percentage damage caused to the plant, SEFTA for C=Cc1c(-c2ccc(Cl)c(Cl)c2)c(C(=O)O)c(=O)n(-c2ccc(F)cc2F)c1C [Compound 38] ?
0

###

tested on: Amaranthus palmeri (AMAPA); test: Pre-emergence test, herbicidal damage; format: in vivo; details: 1000 g/ha unless otherwise stated, evaluated after 13 days, five-point scale
Readout: percentage damage caused to the plant, AMAPA

State the recorded percentage damage caused to the plant, AMAPA for this entry: `Cc1c(Cl)c(-c2ccc(Cl)c(Cl)c2)c(C(=O)O)c(=O)n1-c1ccc(Cl)cc1`
4 (4=61-80%)

# lookup: percentage damage caused to the plant, AMAPA of `Cc1cc(-c2ccc(Cl)c(Cl)c2)c(C(=O)O)c(=O)n1-c1cccc(C(F)(F)F)c1F`
0

Which percentage damage caused to the plant, AMAPA value is on record for `Cc1c(C2CC2)c(-c2ccc(Cl)c(Cl)c2)c(C(=O)O)c(=O)n1-c1ccc(F)cc1F` ?
4 (4=61-80%)

Returns the measured percentage damage caused to the plant, AMAPA for the input molecule. Input: `Cc1cc(-c2ccc(Cl)c(Cl)c2)c(C(=O)O)c(=O)n1-c1ncc(Cl)cc1F`
0

Entry `Cc1[nH]c(=O)c(C(=O)O)c(-c2ccc(Cl)c(Cl)c2)c1Cl` has what percentage damage caused to the plant, AMAPA?
0

percentage damage caused to the plant, AMAPA lookup needed for `Cc1c(Cl)c(-c2ccc(Cl)c(Cl)c2)c(C(=O)O)c(=O)n1Cc1ccc(F)cc1F` , thanks.
4 (4=61-80%)

Recorded percentage damage caused to the plant, AMAPA of `Cc1[nH]c(=O)c(C(=O)O)c(-c2ccc(Cl)c(Cl)c2)c1Br` , please.
3 (3=41-60%)

Bench note: what percentage damage caused to the plant, AMAPA did `Cc1c(-c2ccc(Cl)c(Cl)c2)c(C(=O)O)c(=O)n(C)c1C` show?
1 (1=1-20%)

Given `Cc1c(Cl)c(-c2ccc(Cl)c(Cl)c2)c(C(=O)O)c(=O)n1Cc1ccc(C(F)(F)F)cc1F` , state its recorded percentage damage caused to the plant, AMAPA.
4 (4=61-80%)

So what's the measured percentage damage caused to the plant, AMAPA for this one? `C=Cc1c(-c2ccc(Cl)c(Cl)c2)c(C(=O)O)c(=O)n(-c2ccc(F)cc2F)c1C`
1 (1=1-20%)

Which percentage damage caused to the plant, AMAPA reading was recorded for the molecule `Cc1cc(-c2ccc(Cl)c(Cl)c2)c(C(=O)O)c(=O)[nH]1` ?
0

Please give the measured percentage damage caused to the plant, AMAPA for this molecule: `Cc1c(O)c(-c2ccc(Cl)c(Cl)c2)c(C(=O)O)c(=O)n1-c1ccc(Cl)cc1F`
2 (2=21-40%)

Entry `Cc1c(Cl)c(-c2ccc(Cl)c(Cl)c2)c(C(=O)O)c(=O)n1-c1ccc(Cl)cc1F` has what percentage damage caused to the plant, AMAPA?
4 (4=61-80%)

What value of measured percentage damage caused to the plant, AMAPA is listed for `CC#Cc1c(-c2ccc(Cl)c(Cl)c2)c(C(=O)O)c(=O)n(-c2cc(F)cc(Cl)c2)c1C` ?
0

Given `C=Cc1c(-c2ccc(Cl)c(Cl)c2)c(C(=O)O)c(=O)n(-c2ccc(Cl)cc2F)c1C` , state its recorded percentage damage caused to the plant, AMAPA.
4 (4=61-80%)

What percentage damage caused to the plant, AMAPA value was documented for this molecule, `CCc1c(C)[nH]c(=O)c(C(=O)O)c1-c1ccc(Cl)c(Cl)c1` ?
0

Entry `Cc1c(Cl)c(-c2ccc(Cl)c(Cl)c2)c(C(=O)O)c(=O)n1-c1cccc(C(F)(F)F)c1F` : reported percentage damage caused to the plant, AMAPA = ?
4 (4=61-80%)

###

system: Amaranthus palmeri (AMAPA); experiment: Pre-emergence test, herbicidal damage; type: in vivo; settings: 1000 g/ha unless otherwise stated, evaluated after 13 days, five-point scale
Exercise: for every item that follows, state its recorded percentage damage caused to the plant, AMAPA.

// query percentage damage caused to the plant, AMAPA value for entry C=Cc1c(C)[nH]c(=O)c(C(=O)O)c1-c1ccc(Cl)c(Cl)c1 [Compound 8]
1 (1=1-20%)

Endpoint output: percentage damage caused to the plant, AMAPA of CCc1c(-c2ccc(Cl)c(Cl)c2)c(C(=O)O)c(=O)n(-c2ccc(Cl)cc2F)c1C [Compound 35] . Value?
4 (4=61-80%)

Param item = Cc1c(Br)c(-c2ccc(Cl)c(Cl)c2)c(C(=O)O)c(=O)n1Cc1ccc(C#N)cc1F [Compound 33] ; retrieve measured percentage damage caused to the plant, AMAPA.
3 (3=41-60%)

What percentage damage caused to the plant, AMAPA value was documented for this compound, Cc1c(-c2ccc(Cl)c(Cl)c2)c(C(=O)O)c(=O)n(-c2ccc(Cl)cc2F)c1C [Compound 26] ?
3 (3=41-60%)

Suppose we examine the compound Cc1c(Br)c(-c2ccc(Cl)c(Cl)c2)c(C(=O)O)c(=O)n1C [Compound 5] ; what percentage damage caused to the plant, AMAPA value has been reported?
0

Item Cc1cc(-c2ccc(Cl)c(Cl)c2)c(C(=O)O)c(=O)n1-c1ncc(Cl)cc1Cl [Compound 19] has what recorded percentage damage caused to the plant, AMAPA?
0

Dear colleague, I am looking for the recorded percentage damage caused to the plant, AMAPA of the following compound: Cc1[nH]c(=O)c(C(=O)O)c(-c2ccc(Cl)c(Cl)c2)c1C [Compound 9]
0

Can you share its percentage damage caused to the plant, AMAPA? I mean this compound: Cc1[nH]c(=O)c(C(=O)O)c(-c2ccc(Cl)c(Cl)c2)c1C#N [Compound 11]
0

I'd like to know its percentage damage caused to the plant, AMAPA. The compound in question is Cc1c(C2CC2)c(-c2ccc(Cl)c(Cl)c2)c(C(=O)O)c(=O)n1Cc1ccc(Cl)cc1F [Compound 39]
1 (1=1-20%)

Give its percentage damage caused to the plant, AMAPA value. Item: Cc1cc(-c2ccc(Cl)c(Cl)c2)c(C(=O)O)c(=O)n1Cc1ccc(C(F)(F)F)cc1F [Compound 27]
1 (1=1-20%)

Returns the measured percentage damage caused to the plant, AMAPA for the input compound. Input: COCc1c(-c2ccc(Cl)c(Cl)c2)c(C(=O)O)c(=O)n(-c2ccc(F)cc2F)c1C [Compound 36]
2 (2=21-40%)

Name the reported percentage damage caused to the plant, AMAPA value associated with the compound Cc1cc(-c2ccc(Cl)c(Cl)c2)c(C(=O)O)c(=O)n1Cc1ccc(F)cc1F [Compound 31]
1 (1=1-20%)

# query: percentage damage caused to the plant, AMAPA of entry Cc1cc(-c2ccc(Cl)c(Cl)c2)c(C(=O)O)c(=O)n1-c1cccc(C(F)(F)F)c1 [Compound 15]
4 (4=61-80%)

Consider the compound Cc1cc(-c2ccc(Cl)c(Cl)c2)c(C(=O)O)c(=O)n1Cc1ccc(Cl)cc1F [Compound 22] and give its measured percentage damage caused to the plant, AMAPA.
1 (1=1-20%)

// query percentage damage caused to the plant, AMAPA value for entry Cc1cc(-c2ccc(Cl)c(Cl)c2)c(C(=O)O)c(=O)n1-c1ccc(Cl)cc1F [Compound 13]
2 (2=21-40%)

Tell me the measured percentage damage caused to the plant, AMAPA of Cc1c(Cl)c(-c2ccc(Cl)c(Cl)c2)c(C(=O)O)c(=O)n1C [Compound 4] , please.
1 (1=1-20%)

Param item = Cc1c(Cl)c(-c2ccc(Cl)c(Cl)c2)c(C(=O)O)c(=O)n1-c1ccc(F)cc1 [Compound 20] ; retrieve measured percentage damage caused to the plant, AMAPA.
5 (5=81-100%)

GET /values?readout=percentage damage caused to the plant, AMAPA&item= Cc1c(Br)c(-c2ccc(Cl)c(Cl)c2)c(C(=O)O)c(=O)n1-c1ccc(Cl)cc1F [Compound 21]
4 (4=61-80%)

Tell me the measured percentage damage caused to the plant, AMAPA of Cc1cc(-c2ccc(Cl)c(Cl)c2)c(C(=O)O)c(=O)n1-c1ccc(F)cc1 [Compound 16] , please.
0
